Just for reference, PubChem BioAssay (NCATS) is where these values come from.

- ASSAY SYSTEM: Cytochrome P450 1A2 (Homo sapiens)
- ASSAY SUMMARY: p450-cyp1a2 (AID 410)
- CONDITION DETAILS: recombinant CYP1A2, luciferin-ME demethylation, luminescence; series mostly up to 57 µM
Inconclusive results are not listed. The source made the active and inactive calls. Calls come from the whole dose curve.
Please state which outcome applies, choosing from 1 (yes) (active), 0 (no) (inactive)

What call does the record list for N#Cc1ccccc1-c1ccc2ncnc(N3CCNCC3)c2c1 ? 1 (yes)

Hello, I am checking results. What call was entered for CCNc1ncc2nc(CCc3ccccc3)c(=O)n(CCOC)c2n1 ? 1 (yes)

What was the test verdict on O=C(c1csnn1)N1CCC2(CC1)CCN(c1ccccc1)CC2 ? 1 (yes)

Test call, this molecule: CN(C)c1ncc2nc(-c3ccc(F)cc3)c(=O)n(C[C@H]3CCCO3)c2n1 1 (yes)

Tell me the recorded outcome of this test for O=c1cnc2cnc(Nc3ccccc3)nc2n1Cc1cccs1 . 1 (yes)

// outcome(item) with item = CC(=O)N1CCC2(CCCN(C(c3ccccc3)c3ccccc3)C2)CC1 1 (yes)

Each molecule tested received a call. Report the one for N#CCCn1c(=O)c(-c2ccc(Cl)cc2)nc2cnc(Oc3ccccc3)nc21 . 1 (yes)

// param item: CNc1ncncc1-c1ccccc1OC ; yields the recorded call 1 (yes)

Test call, this molecule: FC(F)(F)c1ccccc1-c1nc(NCCN2CCOCC2)c2ccccc2n1 1 (yes)

Write down the call the test reported for this molecule. Item: COc1ncc2nc(-c3cc(F)cc(F)c3)c(=O)n(-c3ccccc3)c2n1 1 (yes)

Per the assay record, what outcome was assigned to Cc1nc2cnc(N3CCNCC3)nc2n(Cc2ccc(F)cc2)c1=O ? 1 (yes)

Tell me the assay call for CC(C)NC(=O)N1CC[C@@]2(CCCN(C(=O)c3cccn3C)C2)C1 please. 0 (no)

Hi team, can someone confirm the assay call for CN1CCN(c2ncc3nc(CCc4ccccc4)c(=O)n(Cc4ccc(F)cc4)c3n2)CC1 ? 0 (no)

# lookup: test call for COC(=O)N1CCC2(CCCN(C(=O)Nc3cccc(F)c3)C2)CC1 0 (no)

Look up the recorded call for CC(C)CN1CC[C@@]2(CCCN(C(=O)c3cnccn3)C2)C1 in this test. 0 (no)

Check the results log: what was the call for COc1ccc(-n2c(=O)c(-c3cn(C)c4ccccc34)nc3cnc(OC)nc32)cc1 ? 0 (no)

Tell me the assay call for CC(C)NC(=O)N1CCC2(CC1)CCN(C(=O)c1cc(C(F)(F)F)cc(C(F)(F)F)c1)CC2 please. 0 (no)

Short answer needed: outcome of this test for Cc1noc(C)c1-c1cc(NCc2ccccc2)ncn1 ? 1 (yes)

# lookup: test call for O=C(c1cccc(F)c1)N1CCC2(CCN(Cc3cc(C(F)(F)F)cc(C(F)(F)F)c3)CC2)CC1 0 (no)

Dear all, I need the recorded test outcome for CS(=O)(=O)N1CCC[C@@]2(CCN(C(=O)Nc3ccccc3)C2)C1 , thank you. 0 (no)

For this molecule, state the assay outcome: Cc1noc(C)c1-c1ccc2ncnc(N3CCN(C)CC3)c2c1 1 (yes)

For COc1cccc(Nc2ncc3nc(C)c(=O)n(C4CC4)c3n2)c1 , which call appears in the assay record? 1 (yes)
